The reported measurements were obtained from patent US20110038881A1.

Target: HLA-DRB1*1301 (human)
Assay: competition binding
Conditions: modification not given
Property: IC50; scope: individual binders

Worked examples follow.
HTVQRMYGCDVGSDW [p17*] :: > 100 µM
VGYVDDTQFVRFDSD [p6] :: > 100 µM

Turning now to a further binder:
IC50 recorded for this binder, EDLRSWTAADMAAQT [p27] , is > 100 µM
